- Test system: Klebsiella pneumoniae
- Test Settings: Concentration 20 uM; ASSAY_TEST Inhibition of Bacterial Growth; detection method Absorption (OD600); MEDIA CAMHB; plate type 384well; NBS; CORNING #3640; time 18 hr
- Description: Antibacterial activity against Klebsiella pneumoniae MDR ATCC 70063 (CO-ADD:GN_003); MIC in CAMBH media using NBS plates, by OD(600)
Results with a measured potency or affinity are listed apart.
Measure: Inhibition (%)
One number for each entry, in %.

These solved cases illustrate the format of a correct answer.
Compound | Inhibition / %
CCOC(=O)CCC1(C(=O)OC)C(=O)CCCCC/C=C/1C(=O)OC (stereo unspecified) | 8.19
Cc1nc2ccccc2c(N)c1-c1cc(C)c2c(C)nc3ccccc3c2n1 | 5.08
C=CCSc1n[nH]c(-c2cccs2)n1 | 19.42
COc1cc2c(NCCCCCO)ncnc2c(OC)c1OC | 13.53
N=C(N)NC(=S)Nc1ccc(Cl)cc1 | 9.15

Shifting focus to the compound that follows.
Please provide the recorded Inhibition for CC(C)(c1cc(Cl)c(O)c(CN2CCOCC2)c1)c1cc(Cl)c(O)c(CN2CCOCC2)c1 , tested on Klebsiella pneumoniae. 0.6
